These data points were gathered from ChEMBL document CHEMBL1961873.

Target: Rho-associated protein kinase 2 (Homo sapiens) (UniProt O75116)
Sequence (O75116 whole entry, looked up): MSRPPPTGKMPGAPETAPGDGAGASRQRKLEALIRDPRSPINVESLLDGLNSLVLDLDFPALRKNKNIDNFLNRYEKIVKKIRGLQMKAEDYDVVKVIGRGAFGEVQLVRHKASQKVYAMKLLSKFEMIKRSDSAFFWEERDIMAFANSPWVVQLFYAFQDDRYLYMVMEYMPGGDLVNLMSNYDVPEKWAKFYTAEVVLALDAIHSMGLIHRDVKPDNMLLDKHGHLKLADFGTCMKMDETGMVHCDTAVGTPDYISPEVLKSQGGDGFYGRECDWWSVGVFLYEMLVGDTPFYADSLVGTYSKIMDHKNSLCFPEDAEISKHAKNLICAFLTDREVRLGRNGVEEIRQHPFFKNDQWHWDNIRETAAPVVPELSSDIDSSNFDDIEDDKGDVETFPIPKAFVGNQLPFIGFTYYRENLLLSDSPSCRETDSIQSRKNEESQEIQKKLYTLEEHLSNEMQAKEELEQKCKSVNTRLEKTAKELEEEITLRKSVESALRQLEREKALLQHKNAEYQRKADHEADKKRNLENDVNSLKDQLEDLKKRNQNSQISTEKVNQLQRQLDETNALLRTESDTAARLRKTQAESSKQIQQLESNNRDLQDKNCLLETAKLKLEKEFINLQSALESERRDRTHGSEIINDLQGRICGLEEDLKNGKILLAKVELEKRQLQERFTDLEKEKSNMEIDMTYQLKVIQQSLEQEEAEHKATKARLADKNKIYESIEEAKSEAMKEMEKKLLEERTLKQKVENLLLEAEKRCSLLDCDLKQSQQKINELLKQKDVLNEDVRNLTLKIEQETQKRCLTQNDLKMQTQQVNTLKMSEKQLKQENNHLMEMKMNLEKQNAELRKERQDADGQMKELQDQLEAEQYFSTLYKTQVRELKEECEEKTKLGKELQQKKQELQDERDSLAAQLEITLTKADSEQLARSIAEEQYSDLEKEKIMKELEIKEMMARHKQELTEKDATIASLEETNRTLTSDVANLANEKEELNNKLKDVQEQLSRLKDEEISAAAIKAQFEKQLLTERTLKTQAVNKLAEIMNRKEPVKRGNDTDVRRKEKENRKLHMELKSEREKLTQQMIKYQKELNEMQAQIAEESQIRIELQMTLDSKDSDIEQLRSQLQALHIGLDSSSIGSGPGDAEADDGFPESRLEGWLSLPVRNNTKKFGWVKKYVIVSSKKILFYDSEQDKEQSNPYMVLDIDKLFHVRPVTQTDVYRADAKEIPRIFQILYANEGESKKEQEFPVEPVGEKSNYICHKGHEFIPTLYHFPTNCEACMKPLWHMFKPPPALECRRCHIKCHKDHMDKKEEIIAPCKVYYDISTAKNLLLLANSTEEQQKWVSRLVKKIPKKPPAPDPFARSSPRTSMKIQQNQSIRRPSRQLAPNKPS
Details: at 1 µM
Description: GSK_PKIS: ROCK2 mean inhibition at 1 uM [Nanosyn]
Collected inhibition values appear next to each entry.
Respond with the bare value in %.

Cpd Smiles: Nc1nc(-c2ccc(F)cc2)c(-c2ccc3ncccc3n2)s1
inhibition / %: 5.66
--
Cpd Smiles: CCOc1ccc2c(-c3ccnc(Nc4cccc(C(F)(F)F)c4)n3)cnn2n1
inhibition / %: -0.05
--
Cpd Smiles: CNC(=O)c1cc(-c2ccc(F)cc2)cc(-c2ccc(S(=O)(=O)N3CCCC3)cc2)c1N
inhibition / %: 2.18
--
Cpd Smiles: N#Cc1c(NC(=O)c2ccc(F)cc2)sc2c1CCCC2
inhibition / %: 2.62
--
Cpd Smiles: CNC(=O)c1cccc(C#Cc2cncnc2Nc2ccc(OCc3cccc(F)c3)c(Cl)c2)c1
inhibition / %: 4.37
--
Cpd Smiles: CS(=O)(=O)CCNCc1coc(-c2ccc3ncnc(Nc4ccc(OCc5ccccc5)cc4)c3c2)c1
inhibition / %: 1.35

What measured inhibition goes with CN(C)CCOc1ccc(-c2nc(-c3ccncc3)c(-c3ccc4c(c3)CC/C4=N\O)[nH]2)cc1 ? 4.22

Another: Cc1ccc2c(-c3ccnc(Nc4ccccc4)n3)c(-c3ccc(F)cc3)nn2n1 2.45

Would you kindly repeat that for Fc1ccc(-c2nn3ncccc3c2-c2ccnc(Nc3ccc4c(c3)OCCO4)n2)cc1 ? 2.36

Note, next up: CC(C)COC(=O)c1ccc2c(c1)/C(=C/Nc1ccc(S(N)(=O)=O)cc1)C(=O)N2 43.9

Another: COC(=O)Nc1nc2ccc(Oc3ccc(NC(=O)Nc4cccc(Cl)c4)cc3)cc2[nH]1 5.68

Also COc1ccc(-c2oc3ncnc(N)c3c2-c2ccc(NC(=O)Nc3cc(C(F)(F)F)ccc3F)cc2)cc1 , if possible. 41.8

Another: CCn1c(-c2nonc2N)nc2c(C#CC(C)(C)O)nc(OC[C@H](N)c3ccccc3)cc21 51.3

COc1cccc(-n2ncc3c(N/N=C/c4ccc(F)cc4)ncnc32)c1 , same question. 6.14

Next up: c1ccc(-c2nc3n(c2-c2ccc4c(c2)OCO4)CCC3)nc1 5.37

Another molecule to look at: NS(=O)(=O)c1ccc(N/N=C2\C(=O)Nc3ccc4ncccc4c32)cc1 60.3

Next record, please: CN1CCC(n2cnc(-c3ccc(F)cc3)c2-c2ccnc(N)n2)CC1 5.69

###

Target: MAP kinase-activated protein kinase 2 (Homo sapiens) (UniProt P49137)
Sequence (P49137 whole entry, looked up): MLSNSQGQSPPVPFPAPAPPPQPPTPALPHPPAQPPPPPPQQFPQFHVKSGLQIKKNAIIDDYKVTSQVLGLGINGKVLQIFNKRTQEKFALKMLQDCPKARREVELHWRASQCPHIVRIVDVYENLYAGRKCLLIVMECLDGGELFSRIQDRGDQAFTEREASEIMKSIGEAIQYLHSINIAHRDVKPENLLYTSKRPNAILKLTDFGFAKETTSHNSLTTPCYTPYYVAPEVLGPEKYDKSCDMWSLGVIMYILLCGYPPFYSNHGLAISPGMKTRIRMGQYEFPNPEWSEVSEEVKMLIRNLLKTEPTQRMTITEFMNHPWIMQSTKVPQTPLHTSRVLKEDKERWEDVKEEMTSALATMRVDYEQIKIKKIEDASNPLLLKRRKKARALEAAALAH
Conditions: at 1 µM
The entries below are paired with their reported inhibition.
Quick note: give the figure in %, leave out the unit.

Study these solved cases before continuing.
Compound: CCNC(=O)O[C@H]1CN[C@H](C#Cc2cc3ncnc(Nc4ccc(OCc5cccc(F)c5)c(Cl)c4)c3s2)C1
System Tested: MAP kinase-activated protein kinase 2 (Homo sapiens) (UniProt P49137)
Measured Parameter: inhibition
Numeric Readout: 1.53

Compound: CCn1cc(-c2ccnc3[nH]ccc23)c(-c2cccc(NC(=O)Nc3ccc(OCc4ccccc4)cc3)c2)n1
System Tested: MAP kinase-activated protein kinase 2 (Homo sapiens) (UniProt P49137)
Measured Parameter: inhibition
Numeric Readout: -0.71

Compound: NS(=O)(=O)c1ccc(Nc2ncc(-c3ccccc3)o2)cc1
System Tested: MAP kinase-activated protein kinase 2 (Homo sapiens) (UniProt P49137)
Measured Parameter: inhibition
Numeric Readout: 1.99

Compound: CC1=C(C(=O)Nc2cc(Cl)c3[nH]ncc3c2)C(c2ccc(C(F)(F)F)cc2)CC(=O)N1 (stereo unspecified)
System Tested: MAP kinase-activated protein kinase 2 (Homo sapiens) (UniProt P49137)
Measured Parameter: inhibition
Numeric Readout: 4.3

Compound: Cc1cccc(Nc2ncc(-c3ccccc3)o2)c1
System Tested: MAP kinase-activated protein kinase 2 (Homo sapiens) (UniProt P49137)
Measured Parameter: inhibition
Numeric Readout: 3.82

Compound: CN1CCC(n2cnc(-c3ccc(F)cc3)c2-c2ccnc(Nc3ccccc3)n2)CC1
System Tested: MAP kinase-activated protein kinase 2 (Homo sapiens) (UniProt P49137);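 note: values are mean inhibition from the GSK PKIS screen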
Measured Parameter: inhibition
Numeric Readout: 0.41

I am curious: what inhibition value has been reported for CCn1c(-c2nonc2N)nc2c(C#CC(C)(C)O)nc(OC[C@H](N)c3ccccc3)cc21 ? 2.99
